Biological target: T1, recombinant human NKp30 extracellular domain, his-tagged (human, UniProt O14931 19-135)
T1 construct: BLI used human NKp30 bought from Abcam (his-tagged ECD); also called rh NKp30 ECD; human NKp30 (Abcam); not shown: his tag
T1 sequence: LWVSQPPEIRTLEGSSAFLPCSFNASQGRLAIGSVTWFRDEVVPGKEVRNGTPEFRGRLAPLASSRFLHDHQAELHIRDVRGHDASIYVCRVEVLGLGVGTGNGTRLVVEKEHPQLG
Assay: BLI as in Example 1, maximum binding capacity
Quick list: Emax (nm) per entry.
assay_endpoint: Emax (nm)

- VHH1.6 (humanized) (VHH, expressed and measured by BLI 'as described in Experiment 1' (there: bispecific SEEDbody on anti-human Fc sensors)) VHH: EVQLVESGGGVVQPGGSLRLSCATSGFTLDDYTIGWVRQAPGKGLEGVSCFSPSDGTTYYADSVKGRFTFSRDNAKNTLYLQMNSLRAEDTAVYYCAASFADGSSWCYDYWGQGTLVTVSS: 0.14
- VHH1 (parental, as tested in Example 8) (VHH, expressed and measured by BLI 'as described in Experiment 1' (there: bispecific SEEDbody on anti-human Fc sensors)) VHH: DVQLQESGGGLVQPGGSLRLSCATSGFTLDDYTIGWVRQAPGKEHEGVSCFSPSDGTTYYADSVKGRFTFSRDNAKNTVYLQMNSLKPEDTAVYYCAASFADGSSWCYDYWGQGTQVTVSS: 0.13
- VHH1.8 (humanized) (VHH, expressed and measured by BLI 'as described in Experiment 1' (there: bispecific SEEDbody on anti-human Fc sensors)) VHH: EVQLVESGGGVVQPGGSLRLSCATSGFTLDDYTIGWVRQAPGKGLEGVSCFSPSDGTTYYADSVKGRFTISRDNAKNTLYLQMNSLRAEDTAVYYCAASFADGSSWCYDYWGQGTLVTVSS: 0.1
- VHH1.5 (humanized) (VHH, expressed and measured by BLI 'as described in Experiment 1' (there: bispecific SEEDbody on anti-human Fc sensors)) VHH: EVQLVESGGGVVQPGGSLRLSCAASGFTLDDYTIGWVRQAPGKGLEGVSCFSPSDGTTYYADSVKGRFTISRDNAKNTVYLQMNSLRAEDTAVYYCAASFADGSSWCYDYWGQGTLVTVSS: 0.1
